system: antibodies in sera from SARS patients (sera 1a, 1b, 2, 6, 37, 62, London, SARS-yellow, SARS-green); assay type: binding, human
Measured Binding of serum 2 to linear peptides of protein X2 values are reported for all entries that follow.

Prompt line: Return reported Binding of serum 2 to linear peptides of protein X2; argument: "SQIQLSLLKVTAFQH"
Response line: 0.4

Prompt line: Given the sequence "KLLQTLVLKMLHSSS" , what is its reported Binding of serum 2 to linear peptides of protein X2?
Response line: 0.4

Prompt line: What value of Binding of serum 2 to linear peptides of protein X2 has been reported for the following sequence? "LKMLHSSSLTSLLKT"
Response line: 0.6

Prompt line: Return reported Binding of serum 2 to linear peptides of protein X2; argument: "QFMMSRRRLLACLCK"
Response line: 0.5

Prompt line: Can you look up the measured Binding of serum 2 to linear peptides of protein X2 of "FTTSLSLHKLLQTLV" for me?
Response line: 0.4

Prompt line: Requested read-out: Binding of serum 2 to linear peptides of protein X2. Entry: "HITVSQIQLSLLKVT"
Response line: 0.5

Prompt line: GET /values?readout=Binding of serum 2 to linear peptides of protein X2&item= "CKYTQSTALQELLIQ"
Response line: 0.5
